system: RXF 393 renal; assay: NCI-60 one-dose screen, 48 h (100 = growth as untreated, 0 = no growth, -100 = all killed); conditions: 10 µM unless noted
About 83,000 compounds went through this panel and 20% of them were active in at least one assay; those are over-represented in the sample as a whole.
Measurement label: growth (%)

| Compound | Measurement label | Reading unit | Measured result |
| --- | --- | --- | --- |
| O=C1N(Cc2ccccc2Cl)c2ccccc2C12NN=C(c1ccccc1)S2 (stereo unspecified) | growth | % | 75.1 |
| c1cn2cc(-c3ccc4ncn(C5CCCCC5)c4c3)nc(-c3ccc4c(c3)ncn4C3CCCCC3)c2n1 | growth | % | -89.1 |
| O=C(NCCN1CCCC1)n1cc(-c2ccncc2)c(-c2cc(O)cc(Cl)c2)n1 | growth | % | 75.5 |
| CC1=CCC2C1CC=C(C)C(CC[C@H]1[C@@](C)(O)CCC3OC(C)(C)[C@H](OC(=O)c4ccccc4)CC[C@@]31C)C2(C)C (stereo partly specified) | growth | % | 69.8 |
| CCOC(=O)Cc1cc(Br)c(OCc2ccccc2)c(Br)c1 | growth | % | 96.4 |
| CCC1N=C(N)N=C(N)N1c1ccc(Cl)cc1 (stereo unspecified) | growth | % | 89.3 |
| CC[C@H](C)[C@H](N)C(=O)O | growth | % | 96.8 |
| COc1cnc2c(c1)C(=O)c1c-2n(CCCNC(C)C)c(=O)c2cc(Cl)ccc12 | growth | % | -77.1 |
| COc1ccc(-c2cnnn2-c2nonc2-n2cccc2)cc1 | growth | % | -18.3 |
| CCCCCCCCCCCCC1CCC(=O)O1 (stereo unspecified) | growth | % | 123 |
| N#CCCn1cnc2c(N)ncnc21 | growth | % | 120 |
